For ERK2 (Homo sapiens, UniProt P28482), measured IC50 is reported for the entries below.

given smiles	IC50, nM
Cc1cnc(Nc2ccnn2C)nc1-c1cn2c(n1)C(=O)N(Cc1cccc(OC(F)F)c1)[C@@H](C)C2	0.5
COC[C@H]1Cn2cc(-c3nc(Nc4ccnn4C)ncc3C)nc2C(=O)N1Cc1cccc(C(F)F)n1	1.1
COc1cccc(CN2C(=O)c3nc(-c4nc(Nc5ccnn5C)ncc4C)cn3C[C@@H]2C)c1	0.6
C[C@H]1Cn2cc(-c3nc(Nc4ccnn4C)ncc3Cl)nc2C(=O)N1Cc1ccnc(C(F)(F)F)n1	1.1
Cc1cnc(Nc2ccnn2C)nc1-c1cn2c(n1)C(=O)N(Cc1cc(C(F)F)ccn1)[C@@H](C)C2	0.8
Cc1cnc(Nc2ccnn2C)nc1-c1cn2c(n1)C(=O)N(Cc1ccc(F)c(Cl)c1)CC2	0.6
Cc1cnc(Nc2ccnn2C)nc1-c1cn2c(n1)C(=O)N(Cc1cc(C(F)(F)F)ccn1)[C@@H](C)C2	0.9

###

// reported pIC50 for each item listed
- System: phospho-p90RSK in A375 cell line
- protocol description: A375 Phospho-p90RSK Cellular Assay
- Format: cell-based, human
- run conditions: Homo sapiens, A-375; A375 cells, 2 hours incubation
pIC50: −log10 of the molar value.
recorded metric: pIC50

given smiles	result value
Cc1cnc(Nc2ccnn2C)nc1-c1cn2c(n1)C(=O)N(Cc1cccc(C(F)F)n1)CC2	6.82
Cc1cnc(Nc2ccnn2C)nc1-c1cn2c(n1)C(=O)N(Cc1ccnc(C(F)(F)F)n1)[C@@H](C)C2	6.70
Cc1cccc(CN2C(=O)c3nc(-c4nc(Nc5ccnn5C)ncc4Cl)cn3C[C@@H]2C)n1	6.82
